The values you see were collected from ChEMBL document CHEMBL1961873.

Molecular target: Homeodomain-interacting protein kinase 4 (Homo sapiens);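 note: reported as mean inhibition, part of the GSK PKIS dataset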
Settings: at 0.1 µM
Kindly state inhibition for each of the entries shown.
Numbers only, in %.

GIVEN_SMILES: CCn1c(-c2nonc2N)nc2c(C#CC(C)(C)O)ncc(OCC3CCNCC3)c21
READING_UNIT: %
inhibition: 1.95

For each of the items listed, what is its inhibition?
1. Cc1cc(-c2ccco2)cc(C)c1/C=C/c1cncc(-c2nn[nH]n2)c1
2. CCn1c(-c2nonc2N)nc2c(C#CC(C)(C)O)nc(O[C@@H](CN)c3ccccc3)cc21
3. NC(=O)c1sc(-n2cnc3cc(C(F)(F)F)ccc32)cc1OCc1ccccc1Br
4. COc1cccc(COc2cc(-n3cnc4ccccc43)sc2C(N)=O)c1
5. Fc1ccc(-c2ncn(C3CCNCC3)c2-c2ccnc(Oc3ccccc3)n2)cc1
6. NS(=O)(=O)c1ccc(-c2ccc3c(NC(=O)C4CC4)n[nH]c3c2)cc1

A.
[-0.32, 3.23, -0.26, -0.59, 0.38, 3.34]

Quick batch: inhibition for everything below.
1. CCn1c(-c2nonc2N)nc2c(C#CCN)ncc(OCCCN)c21
2. COc1cccc(-n2ncc3c(N/N=C/c4ccncc4)ncnc32)c1

A.
1. 1.45
2. 19.6

---

System: Tyrosine-protein kinase ABL1 (Homo sapiens), P00519 [E255K]
Settings: at 1 µM
QUANTITY_KIND: inhibition
Write the figure, then the unit, nothing else.

GIVEN_SMILES: Fc1ccc(-c2ncn(C3CCNCC3)c2-c2ccnc(Oc3ccccc3)n2)cc1
RESULT: 1.05%
//
GIVEN_SMILES: COc1cccc(-n2ncc3c(N/N=C/c4ccncc4)ncnc32)c1
RESULT: 93.9%
//
GIVEN_SMILES: CCn1c(-c2nonc2N)nc2c(C#CCN)ncc(OCCCN)c21
RESULT: -4.45%
//
GIVEN_SMILES: Cc1cc(-c2ccco2)cc(C)c1/C=C/c1cncc(-c2nn[nH]n2)c1
RESULT: 2.01%
//
GIVEN_SMILES: COc1cccc(COc2cc(-n3cnc4ccccc43)sc2C(N)=O)c1
RESULT: -0.15%
//
GIVEN_SMILES: NS(=O)(=O)c1ccc(-c2ccc3c(NC(=O)C4CC4)n[nH]c3c2)cc1
RESULT: 7.46%
//
GIVEN_SMILES: NC(=O)c1sc(-n2cnc3cc(C(F)(F)F)ccc32)cc1OCc1ccccc1Br
RESULT: 3.23%

Q. Recorded inhibition of NS(=O)(=O)c1ccc(N/C=C2\C(=O)Nc3ccc4ncsc4c32)cc1 , please.
A. 21.2%

---

Biological target: Rho-associated protein kinase 2 (Homo sapiens) (UniProt O75116)
Details: at 1 µM
Description: GSK_PKIS: ROCK2 mean inhibition at 1 uM [Nanosyn]
Kindly supply the reported inhibition values for the records listed here.
Give bare numbers, in %.

In the examples that follow, each entry is paired with its recorded inhibition.
GIVEN_SMILES: CCn1c(-c2nonc2N)nc2c(C#CC(C)(C)O)nc(O[C@@H](CN)c3ccccc3)cc21
READING_UNIT: %
inhibition: 59.4
--
GIVEN_SMILES: Cc1cc(-c2ccco2)cc(C)c1/C=C/c1cncc(-c2nn[nH]n2)c1
READING_UNIT: %
inhibition: 1.41
--
GIVEN_SMILES: COc1cc2c(cc1Nc1nc(Nc3ccsc3C(N)=O)c3cc[nH]c3n1)N(C(=O)CN(C)C)CCC2
READING_UNIT: %
inhibition: 23.2
--
GIVEN_SMILES: Fc1ccc(-c2ncn(C3CCNCC3)c2-c2ccnc(Oc3ccccc3)n2)cc1
READING_UNIT: %
inhibition: 0.28

Please turn your attention to the following entry.
Q. Quick check: inhibition of CCn1c(-c2nonc2N)nc2c(C#CC(C)(C)O)ncc(OC[C@@H]3CCCN3)c21 ?
A. 10

---

Would you kindly list inhibition for each of these compounds?
System: Leucine-rich repeat serine/threonine-protein kinase 2 (Homo sapiens), Q5S007 [G2019S]
Sequence (Q5S007 whole entry G2019S): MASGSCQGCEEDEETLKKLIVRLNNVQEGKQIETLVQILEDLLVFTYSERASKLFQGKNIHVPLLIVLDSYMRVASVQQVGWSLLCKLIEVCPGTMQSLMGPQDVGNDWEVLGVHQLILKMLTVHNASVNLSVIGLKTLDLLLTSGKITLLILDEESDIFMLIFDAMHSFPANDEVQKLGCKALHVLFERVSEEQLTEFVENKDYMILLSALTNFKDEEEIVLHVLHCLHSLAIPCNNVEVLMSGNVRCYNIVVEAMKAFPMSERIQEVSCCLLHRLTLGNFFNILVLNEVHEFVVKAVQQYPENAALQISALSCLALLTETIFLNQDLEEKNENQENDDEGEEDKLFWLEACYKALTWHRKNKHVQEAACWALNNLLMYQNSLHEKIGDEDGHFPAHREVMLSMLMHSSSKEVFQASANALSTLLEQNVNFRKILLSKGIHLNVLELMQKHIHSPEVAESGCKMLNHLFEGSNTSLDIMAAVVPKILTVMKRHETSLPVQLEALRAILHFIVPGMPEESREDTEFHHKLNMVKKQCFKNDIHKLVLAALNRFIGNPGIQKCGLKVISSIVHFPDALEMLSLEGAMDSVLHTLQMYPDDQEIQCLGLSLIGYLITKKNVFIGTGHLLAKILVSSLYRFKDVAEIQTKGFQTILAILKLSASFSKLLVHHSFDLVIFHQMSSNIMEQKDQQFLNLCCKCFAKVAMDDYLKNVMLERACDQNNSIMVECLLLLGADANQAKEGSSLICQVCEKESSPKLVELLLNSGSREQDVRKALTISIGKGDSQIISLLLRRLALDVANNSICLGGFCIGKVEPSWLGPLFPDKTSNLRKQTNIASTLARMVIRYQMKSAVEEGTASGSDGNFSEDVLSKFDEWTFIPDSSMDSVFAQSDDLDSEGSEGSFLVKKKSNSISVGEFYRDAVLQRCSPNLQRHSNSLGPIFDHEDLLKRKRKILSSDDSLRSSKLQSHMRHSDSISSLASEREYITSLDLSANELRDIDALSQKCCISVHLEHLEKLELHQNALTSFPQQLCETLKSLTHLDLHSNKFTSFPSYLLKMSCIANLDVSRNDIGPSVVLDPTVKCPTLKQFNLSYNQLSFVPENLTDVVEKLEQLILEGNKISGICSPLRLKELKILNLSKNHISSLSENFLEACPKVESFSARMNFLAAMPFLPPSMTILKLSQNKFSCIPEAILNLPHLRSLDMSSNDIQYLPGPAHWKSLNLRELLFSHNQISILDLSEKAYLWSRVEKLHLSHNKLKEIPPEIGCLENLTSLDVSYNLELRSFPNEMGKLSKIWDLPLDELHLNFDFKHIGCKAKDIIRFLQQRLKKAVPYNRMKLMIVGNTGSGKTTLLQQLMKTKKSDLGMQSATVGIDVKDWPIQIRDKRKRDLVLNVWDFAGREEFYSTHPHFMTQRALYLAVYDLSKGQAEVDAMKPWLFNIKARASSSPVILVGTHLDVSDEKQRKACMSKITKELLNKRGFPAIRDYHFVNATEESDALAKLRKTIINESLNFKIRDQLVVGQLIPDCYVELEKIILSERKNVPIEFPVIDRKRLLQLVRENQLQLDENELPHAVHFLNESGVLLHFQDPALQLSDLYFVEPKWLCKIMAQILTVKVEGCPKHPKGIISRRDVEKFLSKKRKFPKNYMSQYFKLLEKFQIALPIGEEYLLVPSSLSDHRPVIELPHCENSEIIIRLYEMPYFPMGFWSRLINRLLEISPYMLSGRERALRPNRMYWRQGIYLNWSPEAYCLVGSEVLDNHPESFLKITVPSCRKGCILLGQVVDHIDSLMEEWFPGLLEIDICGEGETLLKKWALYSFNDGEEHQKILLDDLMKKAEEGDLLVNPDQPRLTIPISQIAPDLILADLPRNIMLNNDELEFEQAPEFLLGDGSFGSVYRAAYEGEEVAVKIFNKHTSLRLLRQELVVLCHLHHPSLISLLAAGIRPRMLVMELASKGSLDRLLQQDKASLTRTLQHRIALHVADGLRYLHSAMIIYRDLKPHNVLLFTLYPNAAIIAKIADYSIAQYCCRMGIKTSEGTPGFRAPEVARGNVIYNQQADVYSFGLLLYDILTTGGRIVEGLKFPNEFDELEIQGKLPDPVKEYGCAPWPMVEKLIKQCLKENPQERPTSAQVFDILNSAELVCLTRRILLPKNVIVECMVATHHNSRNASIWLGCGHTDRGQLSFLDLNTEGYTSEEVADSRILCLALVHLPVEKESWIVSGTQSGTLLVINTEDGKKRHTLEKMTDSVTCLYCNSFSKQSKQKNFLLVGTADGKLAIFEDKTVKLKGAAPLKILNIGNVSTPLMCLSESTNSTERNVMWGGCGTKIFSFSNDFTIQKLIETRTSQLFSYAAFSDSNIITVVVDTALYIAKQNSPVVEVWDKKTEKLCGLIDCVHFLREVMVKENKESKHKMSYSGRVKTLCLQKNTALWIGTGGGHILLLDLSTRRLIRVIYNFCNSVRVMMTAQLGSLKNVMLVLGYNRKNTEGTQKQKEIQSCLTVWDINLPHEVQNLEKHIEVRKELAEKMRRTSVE
Conditions: at 0.1 µM
One number for each entry, in %.

// worked examples, inhibition included
GIVEN_SMILES: NS(=O)(=O)c1ccc(N/C=C2\C(=O)Nc3ccc4ncsc4c32)cc1
READING_UNIT: %
inhibition: 29.4
//
GIVEN_SMILES: Fc1ccc(-c2ncn(C3CCNCC3)c2-c2ccnc(Oc3ccccc3)n2)cc1
READING_UNIT: %
inhibition: -2.28
//
GIVEN_SMILES: CCn1c(-c2nonc2N)nc2c(C#CCN)ncc(OCCCN)c21
READING_UNIT: %
inhibition: 4.23
//
GIVEN_SMILES: CCn1c(-c2nonc2N)nc2c(C#CC(C)(C)O)nc(O[C@@H](CN)c3ccccc3)cc21
READING_UNIT: %
inhibition: 5.6
//
GIVEN_SMILES: CCn1c(-c2nonc2N)nc2c(C#CC(C)(C)O)ncc(OCC3CCNCC3)c21
READING_UNIT: %
inhibition: 1.31

State recorded inhibition for all listed compounds.
1. COc1cc2c(cc1Nc1nc(Nc3ccsc3C(N)=O)c3cc[nH]c3n1)N(C(=O)CN(C)C)CCC2
2. COc1cccc(-n2ncc3c(N/N=C/c4ccncc4)ncnc32)c1
3. NS(=O)(=O)c1ccc(-c2ccc3c(NC(=O)C4CC4)n[nH]c3c2)cc1
4. COc1cc(C=NNc2ncnc3c2cnn3Cc2ccccc2)ccc1O
5. CCn1c(-c2nonc2N)nc2c(C#CC(C)(C)O)ncc(OC[C@@H]3CCCN3)c21

A.
1. 63
2. 7.97
3. 3.47
4. 1.06
5. 2.98

---

Give measured inhibition for each item. Keep answers brief.
System: Platelet-derived growth factor receptor alpha (Homo sapiens), P16234 [T674I]
Details: at 1 µM
One number for each entry, in %.

# count of solved cases: 8
GIVEN_SMILES: CCn1c(-c2nonc2N)nc2c(C#CC(C)(C)O)nc(O[C@@H](CN)c3ccccc3)cc21
READING_UNIT: %
inhibition: 86.8
--
GIVEN_SMILES: CCn1c(-c2nonc2N)nc2c(C#CC(C)(C)O)ncc(OCC3CCNCC3)c21
READING_UNIT: %
inhibition: 29.9
--
GIVEN_SMILES: Cc1cc(-c2ccco2)cc(C)c1/C=C/c1cncc(-c2nn[nH]n2)c1
READING_UNIT: %
inhibition: 3.42
--
GIVEN_SMILES: CCn1c(-c2nonc2N)nc2c(C#CC(C)(C)O)ncc(OC[C@@H]3CCCN3)c21
READING_UNIT: %
inhibition: 26.6
--
GIVEN_SMILES: COc1cc(C=NNc2ncnc3c2cnn3Cc2ccccc2)ccc1O
READING_UNIT: %
inhibition: 1.46
--
GIVEN_SMILES: COc1cccc(COc2cc(-n3cnc4ccccc43)sc2C(N)=O)c1
READING_UNIT: %
inhibition: -0.65
--
GIVEN_SMILES: COc1cc2c(cc1Nc1nc(Nc3ccsc3C(N)=O)c3cc[nH]c3n1)N(C(=O)CN(C)C)CCC2
READING_UNIT: %
inhibition: 2.94
--
GIVEN_SMILES: Nc1nonc1-c1nc2cnccc2n1C1CCCCC1
READING_UNIT: %
inhibition: 19.5

Would you mind listing inhibition for each of the following compounds?
1. NS(=O)(=O)c1ccc(-c2ccc3c(NC(=O)C4CC4)n[nH]c3c2)cc1
2. COc1cccc(-n2ncc3c(N/N=C/c4ccncc4)ncnc32)c1

A.
[1.43, 82.4]

---

Target: Serine/threonine-protein kinase MRCK beta (Homo sapiens) (UniProt Q9Y5S2)
Sequence (Q9Y5S2 whole entry): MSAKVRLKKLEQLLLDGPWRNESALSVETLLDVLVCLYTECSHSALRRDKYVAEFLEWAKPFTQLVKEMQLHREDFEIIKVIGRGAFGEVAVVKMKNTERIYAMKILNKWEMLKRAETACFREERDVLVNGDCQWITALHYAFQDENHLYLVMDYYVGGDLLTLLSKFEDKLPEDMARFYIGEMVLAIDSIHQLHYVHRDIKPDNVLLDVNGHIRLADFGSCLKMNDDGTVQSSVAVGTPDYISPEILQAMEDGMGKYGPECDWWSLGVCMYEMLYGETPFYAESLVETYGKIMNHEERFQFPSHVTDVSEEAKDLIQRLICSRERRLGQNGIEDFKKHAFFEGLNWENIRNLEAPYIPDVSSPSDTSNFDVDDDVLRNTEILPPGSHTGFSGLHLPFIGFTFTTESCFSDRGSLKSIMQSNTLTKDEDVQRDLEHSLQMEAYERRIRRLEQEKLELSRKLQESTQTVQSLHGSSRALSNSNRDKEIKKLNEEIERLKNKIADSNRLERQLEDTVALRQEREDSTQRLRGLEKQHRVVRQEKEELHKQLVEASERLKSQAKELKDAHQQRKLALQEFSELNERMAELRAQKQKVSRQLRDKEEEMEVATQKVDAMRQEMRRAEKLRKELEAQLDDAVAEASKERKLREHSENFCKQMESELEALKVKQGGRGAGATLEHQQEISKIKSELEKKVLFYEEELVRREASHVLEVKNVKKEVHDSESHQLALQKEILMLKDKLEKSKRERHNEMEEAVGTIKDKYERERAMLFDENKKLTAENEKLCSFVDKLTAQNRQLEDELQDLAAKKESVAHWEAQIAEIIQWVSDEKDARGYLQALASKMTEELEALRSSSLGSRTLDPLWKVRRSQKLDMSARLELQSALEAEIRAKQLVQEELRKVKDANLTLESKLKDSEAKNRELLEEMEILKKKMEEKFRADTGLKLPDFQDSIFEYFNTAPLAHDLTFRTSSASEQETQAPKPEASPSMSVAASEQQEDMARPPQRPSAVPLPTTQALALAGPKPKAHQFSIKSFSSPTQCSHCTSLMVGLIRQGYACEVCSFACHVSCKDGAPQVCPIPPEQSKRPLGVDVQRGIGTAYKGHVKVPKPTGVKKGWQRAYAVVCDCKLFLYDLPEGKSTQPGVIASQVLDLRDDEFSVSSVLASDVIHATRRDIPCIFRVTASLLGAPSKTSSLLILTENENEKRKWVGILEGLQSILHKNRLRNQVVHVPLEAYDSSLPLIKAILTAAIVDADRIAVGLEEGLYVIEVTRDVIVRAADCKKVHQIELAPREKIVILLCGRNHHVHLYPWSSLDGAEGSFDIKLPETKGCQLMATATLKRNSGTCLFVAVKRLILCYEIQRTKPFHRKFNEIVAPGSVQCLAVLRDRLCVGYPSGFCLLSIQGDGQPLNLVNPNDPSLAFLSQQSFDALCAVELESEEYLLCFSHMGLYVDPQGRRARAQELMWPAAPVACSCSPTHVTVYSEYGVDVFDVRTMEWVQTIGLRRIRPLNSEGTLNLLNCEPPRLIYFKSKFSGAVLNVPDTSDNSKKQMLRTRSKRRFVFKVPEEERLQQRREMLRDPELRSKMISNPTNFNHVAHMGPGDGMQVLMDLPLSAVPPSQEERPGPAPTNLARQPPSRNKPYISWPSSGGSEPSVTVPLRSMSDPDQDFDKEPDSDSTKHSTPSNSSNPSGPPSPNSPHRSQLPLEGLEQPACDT
Settings: at 0.1 µM
I'd appreciate it if you could supply inhibition values for the items below.
Answers are plain numbers, in %.

GIVEN_SMILES: NS(=O)(=O)c1ccc(N/C=C2\C(=O)Nc3ccc4ncsc4c32)cc1
TEST_SYSTEM: Serine/threonine-protein kinase MRCK beta (Homo sapiens) (UniProt Q9Y5S2)
READING_UNIT: %
inhibition: 0.46
--
GIVEN_SMILES: CCn1c(-c2nonc2N)nc2c(C#CC(C)(C)O)nc(O[C@@H](CN)c3ccccc3)cc21
TEST_SYSTEM: Serine/threonine-protein kinase MRCK beta (Homo sapiens) (UniProt Q9Y5S2)
READING_UNIT: %
inhibition: 20.8
--
GIVEN_SMILES: COc1cc2c(cc1Nc1nc(Nc3ccsc3C(N)=O)c3cc[nH]c3n1)N(C(=O)CN(C)C)CCC2
TEST_SYSTEM: Serine/threonine-protein kinase MRCK beta (Homo sapiens) (UniProt Q9Y5S2)
READING_UNIT: %
inhibition: -0.68
--
GIVEN_SMILES: COc1cccc(-n2ncc3c(N/N=C/c4ccncc4)ncnc32)c1
TEST_SYSTEM: Serine/threonine-protein kinase MRCK beta (Homo sapiens) (UniProt Q9Y5S2);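 note: values are mean percent inhibition of MRCKB, screened as part of the GSK PKIS kinase inhibitor set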
READING_UNIT: %
inhibition: 0.53

Q. Requested read-out: inhibition. Entry: Cc1cc(-c2ccco2)cc(C)c1/C=C/c1cncc(-c2nn[nH]n2)c1
A. 0.22

---

Molecular target: Sphingosine kinase 2 (Homo sapiens) (UniProt Q9NRA0)
Sequence (Q9NRA0 whole entry): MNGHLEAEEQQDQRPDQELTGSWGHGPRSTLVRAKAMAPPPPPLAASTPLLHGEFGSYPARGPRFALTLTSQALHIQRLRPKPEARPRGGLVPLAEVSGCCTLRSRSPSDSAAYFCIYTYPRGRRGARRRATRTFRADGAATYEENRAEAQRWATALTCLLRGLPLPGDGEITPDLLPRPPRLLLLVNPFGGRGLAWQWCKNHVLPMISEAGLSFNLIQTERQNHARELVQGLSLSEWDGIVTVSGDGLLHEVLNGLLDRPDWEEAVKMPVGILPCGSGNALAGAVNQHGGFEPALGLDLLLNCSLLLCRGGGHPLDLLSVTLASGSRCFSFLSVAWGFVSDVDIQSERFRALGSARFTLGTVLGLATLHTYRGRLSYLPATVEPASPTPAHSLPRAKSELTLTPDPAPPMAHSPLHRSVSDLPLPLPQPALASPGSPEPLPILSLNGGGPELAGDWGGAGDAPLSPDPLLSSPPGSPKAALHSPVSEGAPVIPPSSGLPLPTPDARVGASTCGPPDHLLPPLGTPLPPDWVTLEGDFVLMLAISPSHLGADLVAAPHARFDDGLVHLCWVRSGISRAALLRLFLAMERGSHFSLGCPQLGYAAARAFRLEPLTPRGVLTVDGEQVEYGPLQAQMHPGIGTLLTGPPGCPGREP
Details: at 1 µM
Description: GSK_PKIS: SPHK2 mean inhibition at 1 uM [Nanosyn]
Would you kindly list inhibition for each of these molecules?
Include the unit right after the number.

Give one value of inhibition per listed molecule.
1. CCn1c(-c2nonc2N)nc2c(C#CC(C)(C)O)ncc(OC[C@@H]3CCCN3)c21
2. COc1cccc(COc2cc(-n3cnc4ccccc43)sc2C(N)=O)c1
3. NC(=O)c1sc(-n2cnc3cc(C(F)(F)F)ccc32)cc1OCc1ccccc1Br
4. CCn1c(-c2nonc2N)nc2c(C#CCN)ncc(OCCCN)c21

A.
["0%", "-0.85%", "0%", "-1.33%"]
